# assay-overview: Stability of the compound in mouse plasma assessed as parent compound remaining at 1 uM measured after 5 mins
# Format: ADME, cell-free
# experimental-setup: read-out: Stabilty
Assignment: determine reported remaining at 5 min, 1 µM for the given compounds.
Numbers only, in %.

Reference set, count: 3
1. CCOC(=O)c1coc2ccc(Oc3ccncc3C(=O)N3CCN(C4CC4)c4ccccc43)cc12 :: 38.5
2. COC(=O)c1coc2ccc(Oc3ccncc3C(=O)N3CCN(C4CC4)c4ccccc43)cc12 :: 71
3. CCOC(=O)c1coc2cc(Cl)c(Oc3ccncc3C(=O)N3CCN(C4CC4)c4ccccc43)cc12 :: 92.4

Next up:
Param item = `CCCOC(=O)c1coc2ccc(Oc3ccncc3C(=O)N3CCN(C4CC4)c4ccccc43)cc12` ; retrieve measured remaining at 5 min, 1 µM.
12.3
